Where these numbers come from: patent US20120122860A1

Target: A-Raf (Homo sapiens, UniProt P10398)
Sequence (P10398 1-606): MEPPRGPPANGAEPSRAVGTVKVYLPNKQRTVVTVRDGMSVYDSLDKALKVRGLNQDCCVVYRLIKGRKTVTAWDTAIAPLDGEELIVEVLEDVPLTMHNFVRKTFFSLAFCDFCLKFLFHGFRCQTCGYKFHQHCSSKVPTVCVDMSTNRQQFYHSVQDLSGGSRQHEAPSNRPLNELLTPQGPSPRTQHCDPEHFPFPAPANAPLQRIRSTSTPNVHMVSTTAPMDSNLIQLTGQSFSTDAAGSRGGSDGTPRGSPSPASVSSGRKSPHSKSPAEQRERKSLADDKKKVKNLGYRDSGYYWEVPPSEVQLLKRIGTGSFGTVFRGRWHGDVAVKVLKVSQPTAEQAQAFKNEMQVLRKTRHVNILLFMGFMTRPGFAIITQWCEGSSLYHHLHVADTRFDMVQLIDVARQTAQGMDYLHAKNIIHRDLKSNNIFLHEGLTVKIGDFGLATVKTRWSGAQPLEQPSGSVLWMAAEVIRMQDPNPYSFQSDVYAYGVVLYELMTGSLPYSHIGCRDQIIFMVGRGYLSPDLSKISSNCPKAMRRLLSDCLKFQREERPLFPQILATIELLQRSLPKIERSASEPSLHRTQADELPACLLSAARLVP
attribute measured: IC50

Observe how each entry below is paired with its result.
{"columns": ["molecule", "IC50"],
 "data": [
  ["CC(C)CS(=O)(=O)Nc1ccc(F)c(C(=O)c2c[nH]c3ncc(-c4ccc(Cl)cc4)cc23)c1F", "≤ 10 µM"],
  ["CCN(CC)S(=O)(=O)Nc1ccc(F)c(C(=O)c2c[nH]c3nccc(C#N)c23)c1F", "≤ 10 µM"],
  ["CCCC(C)S(=O)(=O)Nc1ccc(F)c(C(=O)c2c[nH]c3ncc(C#N)cc23)c1F (stereo not drawn)", "≤ 10 µM"]
]}

// batch mode: one IC50 value per listed entry
1. N#Cc1cnc2[nH]cc(C(=O)c3cccc(NS(=O)(=O)N4CCCC4)c3F)c2c1
2. CCN(CC)S(=O)(=O)Nc1ccc(F)c(C(=O)c2c[nH]c3ncc(OC)cc23)c1F

1. ≤ 10 µM
2. ≤ 10 µM

----------
pIC50: −log10 of the molar value.
Assay read-out pIC50; system under study: TEC (Homo sapiens, UniProt P42680).
Sequence (P42680 whole entry): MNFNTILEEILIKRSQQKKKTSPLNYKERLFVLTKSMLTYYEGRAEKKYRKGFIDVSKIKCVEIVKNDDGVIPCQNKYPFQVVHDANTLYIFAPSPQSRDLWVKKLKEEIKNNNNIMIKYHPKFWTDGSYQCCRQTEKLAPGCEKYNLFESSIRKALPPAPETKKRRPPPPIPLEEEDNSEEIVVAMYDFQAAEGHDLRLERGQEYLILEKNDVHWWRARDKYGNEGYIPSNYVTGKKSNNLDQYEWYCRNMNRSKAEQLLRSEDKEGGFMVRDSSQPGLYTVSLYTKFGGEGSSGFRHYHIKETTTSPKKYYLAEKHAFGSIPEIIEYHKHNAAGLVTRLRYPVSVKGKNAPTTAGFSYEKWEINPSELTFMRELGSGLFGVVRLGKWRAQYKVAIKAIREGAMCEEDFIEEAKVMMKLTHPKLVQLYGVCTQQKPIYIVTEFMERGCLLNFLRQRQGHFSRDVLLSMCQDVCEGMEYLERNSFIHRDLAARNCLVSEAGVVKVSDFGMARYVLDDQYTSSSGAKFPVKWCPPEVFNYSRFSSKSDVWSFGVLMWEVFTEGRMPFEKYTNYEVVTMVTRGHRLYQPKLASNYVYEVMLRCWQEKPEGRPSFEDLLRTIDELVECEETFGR

Observe how each entry below is paired with its result.
{"columns": ["compound", "assayed target", "recorded result"],
 "data": [
  ["O=C(c1c(F)ccc(NS(=O)(=O)c2c(F)cccc2F)c1F)c1c[nH]c2ncc(Cl)cc12 [P-2003]", "TEC (Homo sapiens, UniProt P42680)", "≥ 5.00"],
  ["COc1ncc(-c2cnc3[nH]cc(C(=O)c4c(F)ccc(NS(=O)(=O)CC(F)(F)F)c4F)c3c2)cn1 [P-2342]", "TEC (Homo sapiens, UniProt P42680)", "≥ 5.00"]
]}

Let us move to another entry and its pIC50.
Consider the compound shown here: CCCC(C)S(=O)(=O)Nc1ccc(F)c(C(=O)c2c[nH]c3ncc(OC)cc23)c1F (stereo not drawn) [P-2309] What is its recorded pIC50?
≥ 5.00

----------
Target: B-Raf (Homo sapiens, UniProt P15056)
Sequence (P15056 whole entry): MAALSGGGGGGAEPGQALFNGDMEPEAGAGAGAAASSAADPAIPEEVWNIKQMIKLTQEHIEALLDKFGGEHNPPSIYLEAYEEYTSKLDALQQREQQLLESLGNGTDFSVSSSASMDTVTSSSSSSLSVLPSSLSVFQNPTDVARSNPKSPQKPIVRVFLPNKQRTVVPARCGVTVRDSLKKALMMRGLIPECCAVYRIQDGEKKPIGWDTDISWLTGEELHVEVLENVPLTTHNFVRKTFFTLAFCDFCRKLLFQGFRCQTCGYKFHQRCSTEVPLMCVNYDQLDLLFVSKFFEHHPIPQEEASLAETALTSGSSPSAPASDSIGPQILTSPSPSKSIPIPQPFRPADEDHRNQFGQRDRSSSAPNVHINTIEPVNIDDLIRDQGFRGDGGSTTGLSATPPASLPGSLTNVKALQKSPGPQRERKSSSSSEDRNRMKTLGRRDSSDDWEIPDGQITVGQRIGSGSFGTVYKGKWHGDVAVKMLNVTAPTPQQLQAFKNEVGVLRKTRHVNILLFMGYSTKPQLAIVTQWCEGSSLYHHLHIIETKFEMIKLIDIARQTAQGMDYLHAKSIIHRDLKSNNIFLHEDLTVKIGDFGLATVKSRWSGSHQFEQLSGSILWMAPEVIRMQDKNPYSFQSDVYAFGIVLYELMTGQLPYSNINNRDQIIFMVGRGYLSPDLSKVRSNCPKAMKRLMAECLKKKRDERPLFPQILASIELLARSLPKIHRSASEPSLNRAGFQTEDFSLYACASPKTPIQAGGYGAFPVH
attribute measured: IC50

Observe how each entry below is paired with its result.
{"columns": ["molecule", "IC50"],
 "data": [
  ["O=C(c1c(F)ccc(NS(=O)(=O)c2ccccc2F)c1F)c1c[nH]c2nccc(Cl)c12", "≤ 10 µM"],
  ["CCS(=O)(=O)Nc1ccc(F)c(C(=O)c2c[nH]c3ncc(-c4cnn(C)c4)cc23)c1F", "≤ 10 µM"],
  ["CCCS(=O)(=O)Nc1ccc(F)c(C(=O)c2c[nH]c3ncc(-c4ccc(CCCOC)nc4)cc23)c1F", "≤ 10 µM"]
]}

Let us move to another entry and its IC50.
Consider the molecule shown here: CCC(C)S(=O)(=O)Nc1ccc(F)c(C(=O)c2c[nH]c3ncc(Cl)cc23)c1F (stereo not shown) What is its recorded IC50?
≤ 10 µM

----------
Target: C-Raf (Homo sapiens, UniProt P04049)
Sequence (P04049 whole entry): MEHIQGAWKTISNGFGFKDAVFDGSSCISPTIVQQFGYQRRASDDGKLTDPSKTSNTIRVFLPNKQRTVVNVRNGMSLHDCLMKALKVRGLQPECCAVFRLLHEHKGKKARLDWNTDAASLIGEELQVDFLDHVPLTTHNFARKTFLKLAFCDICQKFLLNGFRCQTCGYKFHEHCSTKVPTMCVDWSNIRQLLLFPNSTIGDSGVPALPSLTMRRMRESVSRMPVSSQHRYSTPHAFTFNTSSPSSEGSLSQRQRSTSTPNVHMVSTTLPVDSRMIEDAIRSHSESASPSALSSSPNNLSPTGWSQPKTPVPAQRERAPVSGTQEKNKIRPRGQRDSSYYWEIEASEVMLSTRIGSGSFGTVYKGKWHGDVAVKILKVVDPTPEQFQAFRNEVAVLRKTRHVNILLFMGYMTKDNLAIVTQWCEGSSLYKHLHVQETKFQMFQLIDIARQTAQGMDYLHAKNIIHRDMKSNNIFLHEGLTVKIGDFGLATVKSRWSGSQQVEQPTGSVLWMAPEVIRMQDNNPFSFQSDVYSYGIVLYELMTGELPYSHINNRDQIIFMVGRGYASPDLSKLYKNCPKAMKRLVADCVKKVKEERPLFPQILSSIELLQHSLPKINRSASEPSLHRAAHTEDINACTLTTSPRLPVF
pIC50: −log10 of the molar value.
Please go through the items and note down their pIC50.

Observe how each entry below is paired with its result.
{"columns": ["smiles text", "attribute measured", "recorded result"],
 "data": [
  ["CCCS(=O)(=O)Nc1ccc(F)c(C(=O)c2c[nH]c3ncc(-c4ccc(S(=O)(=O)N5CCCC5)cc4)cc23)c1F", "pIC50", "≥ 5.00"],
  ["CS(=O)(=O)Nc1cccc(-c2cnc3[nH]cc(C(=O)c4cc(NS(=O)(=O)C5CCCCC5)ccc4F)c3c2)c1", "pIC50", "≥ 5.00"],
  ["N#Cc1cnc2[nH]cc(C(=O)c3cccc(NS(=O)(=O)c4c(F)cccc4F)c3F)c2c1", "pIC50", "≥ 5.00"]
]}

Let us move to another entry and its pIC50.
Consider the compound shown here: `CC(C)CS(=O)(=O)Nc1ccc(F)c(C(=O)c2c[nH]c3ncc(Cl)cc23)c1F` What is its recorded pIC50?
≥ 5.00

----------
Molecular target: B-Raf V600E (Homo sapiens, UniProt P15056, V600E)
Sequence (P15056 whole entry V600E): as the sequence (P15056 whole entry) above, with V600E counted along it
Assay: Kinase activity assay, B-Raf V600E
Format: biochemical
Conditions: read-out: activity toward kinase B-Raf V600E, IC50
pIC50: −log10 of the molar value.
attribute measured: pIC50

{"columns": ["molecule", "pIC50"],
 "data": [
  ["COc1ccnc2[nH]cc(C(=O)c3c(F)ccc(NS(=O)(=O)c4ccc(C(F)(F)F)cc4)c3F)c12", "≥ 5.00"]
]}

// batch mode: one pIC50 value per listed entry
1. CCC(C)S(=O)(=O)Nc1ccc(F)c(C(=O)c2c[nH]c3ncc(C)cc23)c1F (stereo not shown)
2. CCCS(=O)(=O)Nc1ccc(F)c(C(=O)c2c[nH]c3ncc(C(=O)NC4CC4)cc23)c1F
3. O=C(c1c(F)ccc(NS(=O)(=O)c2c(F)cccc2F)c1F)c1c[nH]c2ncc(Cl)cc12
4. COc1ccnc2[nH]cc(C(=O)c3c(F)ccc(NS(=O)(=O)c4cc(F)ccc4F)c3F)c12
5. CCCS(=O)(=O)Nc1ccc(F)c(C(=O)c2c[nH]c3ncc(C(=O)NCCO)cc23)c1F
6. CCCS(=O)(=O)Nc1ccc(F)c(C(=O)c2c[nH]c3ncc(-c4cccc(NS(C)(=O)=O)c4)cc23)c1F

1: ≥ 5.00; 2: ≥ 5.00; 3: ≥ 5.00; 4: ≥ 5.00; 5: ≥ 5.00; 6: ≥ 5.00

// batch mode: one pIC50 value per listed entry
1. N#Cc1cnc2[nH]cc(C(=O)c3c(F)ccc(NS(=O)(=O)Cc4ccncc4)c3F)c2c1
2. CCN(CC)S(=O)(=O)Nc1ccc(F)c(C(=O)c2c[nH]c3nccc(OC)c23)c1F
3. N#Cc1cnc2[nH]cc(C(=O)c3c(F)ccc(NS(=O)(=O)Cc4cccnc4)c3F)c2c1
4. COc1cnc2[nH]cc(C(=O)c3c(F)ccc(NS(=O)(=O)CC(F)(F)F)c3F)c2c1

1: ≥ 5.00; 2: ≥ 5.00; 3: ≥ 5.00; 4: ≥ 5.00

// batch mode: one pIC50 value per listed entry
1. CCCS(=O)(=O)Nc1ccc(F)c(C(=O)c2c[nH]c3ncc(-c4ccc(C(=O)NC5CC5)nc4)cc23)c1F
2. COc1ccnc2[nH]cc(C(=O)c3c(F)ccc(NS(=O)(=O)C4CCCCC4)c3F)c12
3. CC(C)CS(=O)(=O)Nc1ccc(F)c(C(=O)c2c[nH]c3nccc(Cl)c23)c1F
4. CCCS(=O)(=O)Nc1ccc(F)c(C(=O)c2c[nH]c3ncc(-c4ccc(OCCCN5CCCC5)nc4)cc23)c1F
5. O=C(c1cc(NS(=O)(=O)C2CC2)ccc1F)c1c[nH]c2ncc(Cl)cc12

1: ≥ 5.00; 2: ≥ 5.00; 3: ≥ 5.00; 4: ≥ 5.00; 5: ≥ 5.00

----------
Assay: Rat PK study of P-1496 free base, arginine and lysine complex
Assay type: in vivo, Sprague-Dawley rats
Conditions: Table 10B, rats, dose 200, in PEG400:water by oral gavage 10 mL/kg
Protocol: A PK study was carried out in Sprague-Dawley rats on the arginine or lysine complex of propane-1-sulfonic acid {2,4-difluoro-3-[5-(2-methoxy-pyrimidin-5-yl)-1H-pyrrolo[2,3-b]pyridine-3-carbonyl]-phenyl}-amide P-1496 (Murigenics, Berkeley, Calif.), dosing via […], with sampling of approximately 250 μL of blood via jugular veing in Lithium heparin tubes at 30 minutes, 1, 3, 6, 8, 12, 24, 36 and 48 hours. […]
attribute measured: Cmax/dose

Consider the compound shown here: `CCCS(=O)(=O)Nc1ccc(F)c(C(=O)c2c[nH]c3ncc(-c4cnc(OC)nc4)cc23)c1F` What is its recorded Cmax/dose?
155 (ng/mL)/(mg/kg)
